Data provenance is patent US20260166039A1.

# Measured on: Wee1 kinase domain (Homo sapiens)
# Construct: Wee1 kinase domain was purchased from Carna (catalog #05-177); purchased Carna 05-177
# Sequence (P30291 299-569 limits assumed): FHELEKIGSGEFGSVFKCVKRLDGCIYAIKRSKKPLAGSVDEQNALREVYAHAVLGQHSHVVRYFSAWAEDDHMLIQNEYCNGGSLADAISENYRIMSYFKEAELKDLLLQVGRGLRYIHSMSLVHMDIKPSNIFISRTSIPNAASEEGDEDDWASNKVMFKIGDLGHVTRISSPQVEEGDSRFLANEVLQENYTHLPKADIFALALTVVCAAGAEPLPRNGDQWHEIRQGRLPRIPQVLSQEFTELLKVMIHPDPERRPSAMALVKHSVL
# Test method notes: Wee1 Kinase Biochemical Assay (ADP-Glo)
# Setup conditions: Wee1 kinase domain, 15 uM ATP, ADP-Glo
pIC50: −log10 of the molar value.
Recorded measurements of pIC50, one per entry
Reported metric: pIC50

INSERT INTO results (molecule, reported_metric, obs_value) VALUES
  ('CN1CC[C@H](c2ccc(Nc3ncc4c(n3)N(c3cccc(N=S(C)(C)=O)n3)[C@H]3CC(C)(C)OC[C@@]43C)cc2)C1 (single isomer, unassigned)', 'pIC50', '6.00 to 7.00'),
  ('CC1(C)C[C@H]2N(c3cccc(N=S(C)(C)=O)n3)c3nc(Nc4ccn5ncnc5c4)ncc3[C@@]2(C)CO1 (single isomer, unassigned)', 'pIC50', '> 8.00'),
  ('Cc1cc(Nc2ncc3c(n2)N(c2cccc(N4C(=O)OC[C@@H]4C)n2)[C@H]2CC(C)(C)OC[C@@]32C)ccc1C1CCN(C)CC1 (single isomer, unassigned)', 'pIC50', '> 8.00'),
  ('Cc1cc(Nc2ncc3c(n2)N(c2cccc(C(C)(C)O)n2)[C@H]2CC(C)(C)OC[C@@]32C)ccc1C1CCN(C)CC1 (single isomer, unassigned)', 'pIC50', '7.00 to 8.00'),
  ('Cc1cc(Nc2ncc3c(n2)N(c2cccc(N=S(C)(C)=O)n2)[C@H]2CC(C)(C)OC[C@@]32C)ccc1C1CCN(C)CC1 (single isomer, unassigned)', 'pIC50', '7.00 to 8.00'),
  ('CN1C[C@H]2C[C@@H]1CN2c1ccc(Nc2ncc3c(n2)N(c2cccc(N=S(C)(C)=O)n2)[C@@H]2CC(C)(C)OC[C@]32C)cc1F (single isomer, unassigned)', 'pIC50', '> 8.00'),
  ('CNCc1cccc(N2c3nc(Nc4ccc(N5CCOCC5)c(Cl)c4)ncc3[C@@]3(C)COC(C)(C)C[C@@H]23)n1 (single isomer, unassigned)', 'pIC50', '> 8.00'),
  ('C[C@H]1COC(=O)N1c1cccc(N2c3nc(Nc4ccc(O[C@@H]5CCN(C)C5)cc4)ncc3[C@@]3(C)COC(C)(C)C[C@@H]23)n1 (single isomer, unassigned)', 'pIC50', '> 8.00');
